molecular target: His6-AspH315–758 (human aspartate/asparagine-β-hydroxylase, AspH) (Homo sapiens, UniProt Q12797); construct: N-Terminally His6-tagged human AspH315–758 (His6-AspH315–758) was produced in E. coli BL21 (DE3) cells; made in house; host or cells: E. coli BL21 (DE3), pET-28a(+) vector; assay: SPE-MS AspH inhibition assay (LOPAC screen at fixed 20 μM and IC50 dose-response), hydroxylation of cyclic peptide hFX-CP101–119; format: biochemical; details: LOPAC compound at 20uM, plate 3; conversion of substrate peptide
Sequence (Q12797 315-758): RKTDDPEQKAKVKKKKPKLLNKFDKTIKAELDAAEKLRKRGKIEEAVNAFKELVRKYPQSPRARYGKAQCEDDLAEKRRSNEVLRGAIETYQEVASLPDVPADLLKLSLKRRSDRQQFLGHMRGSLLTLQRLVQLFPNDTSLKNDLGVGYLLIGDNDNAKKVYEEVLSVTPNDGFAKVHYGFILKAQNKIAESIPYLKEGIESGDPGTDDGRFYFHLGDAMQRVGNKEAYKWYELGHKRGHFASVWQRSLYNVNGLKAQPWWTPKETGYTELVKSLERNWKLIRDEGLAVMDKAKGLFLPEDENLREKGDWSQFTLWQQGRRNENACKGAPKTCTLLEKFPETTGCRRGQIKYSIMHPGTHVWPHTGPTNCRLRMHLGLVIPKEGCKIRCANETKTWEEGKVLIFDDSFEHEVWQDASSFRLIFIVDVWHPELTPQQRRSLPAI
Counter-ions that a name gives are not always drawn.
MEASURED ENDPOINT: Plate 3 (% conversion) (%)
Quick reminder: number only, in %, skip the unit.

Below, each entry is followed by its recorded Plate 3 (% conversion) result.
[
  {
    "COMPOUND": "COc1ccc2c(c1OC)C(=O)O[C@@H]2[C@H]1c2c(cc3c(c2OC)OCO3)CCN1C.Cl [Noscapine hydrchloride]",
    "NUMERIC RESULT": 38.14
  },
  {
    "COMPOUND": "N=C(N)c1ccc(OCCCCCOc2ccc(C(=N)N)cc2)cc1 [Pentamidine isethionate]",
    "NUMERIC RESULT": 37.75
  },
  {
    "COMPOUND": "CNC(=O)[C@H]1O[C@@H](n2cnc3c(NCc4cccc(I)c4)ncnc32)[C@H](O)[C@@H]1O [IB-MECA]",
    "NUMERIC RESULT": 35.04
  },
  {
    "COMPOUND": "COCCOC(=O)C1=C(C)NC(C)=C(C(=O)OC(C)C)C1c1cccc([N+](=O)[O-])c1 (stereo not shown) [Nimodipine]",
    "NUMERIC RESULT": 43.84
  }
]

Param item = CC[N+](CC)(CC)CCOc1ccc(/C=C/c2ccccc2)cc1 [MG 624] ; retrieve measured Plate 3 (% conversion).
29.92

Param item = Cc1ccccc1N1C(=O)c2cc(S(N)(=O)=O)c(Cl)cc2NC1C (stereo not shown) [Metolazone] ; retrieve measured Plate 3 (% conversion).
30.85

Param item = O=C1Cc2c([nH]c3ccc(Br)cc23)-c2ccccc2N1 [Kenpaullone] ; retrieve measured Plate 3 (% conversion).
35.01

Param item = CCCCc1ncc(/C=C(\Cc2cccs2)C(=O)O)n1Cc1ccc(C(=O)O)cc1 [Eprosartan mesylate] ; retrieve measured Plate 3 (% conversion).
33.79

Param item = NC(=O)C(=O)O [Sodium Oxamate] ; retrieve measured Plate 3 (% conversion).
31.22

###

inhibition at 20 µM by entry:
molecular target: His6-AspH315–758 (human aspartate/asparagine-β-hydroxylase, AspH) (Homo sapiens, UniProt Q12797); construct: N-Terminally His6-tagged human AspH315–758 (His6-AspH315–758) was produced in E. coli BL21 (DE3) cells; made in house; host or cells: E. coli BL21 (DE3), pET-28a(+) vector; assay: SPE-MS AspH inhibition assay (LOPAC screen at fixed 20 μM and IC50 dose-response), hydroxylation of cyclic peptide hFX-CP101–119; type: biochemical; conditions: LOPAC compound at 20uM, plate 2; normalised to DMSO and 2,4-PDCA controls; read-out: Plate 2 (% inhibition)
Where a name gives a salt, the structure may show the parent alone.
Quick reminder: number only, in %, skip the unit.

Below, each entry is followed by its recorded inhibition at 20 µM result.
[
  {
    "COMPOUND": "C#C[C@]1(O)CC[C@H]2[C@@H]3CCC4=Cc5oncc5C[C@]4(C)[C@H]3CC[C@@]21C [Danazol]",
    "UOM": "%",
    "NUMERIC RESULT": -11.1
  },
  {
    "COMPOUND": "CN(C)CCOC(c1ccccc1)c1ccccc1 [Diphenhydramine hydrochloride]",
    "UOM": "%",
    "NUMERIC RESULT": -7.73
  },
  {
    "COMPOUND": "Cc1cnc(C(=O)NCCc2ccc(S(=O)(=O)NC(=O)NC3CCCCC3)cc2)cn1 [Glipizide]",
    "UOM": "%",
    "NUMERIC RESULT": -8.88
  },
  {
    "COMPOUND": "CNCCCN1c2ccccc2CCc2ccccc21 [Desipramine hydrochloride]",
    "UOM": "%",
    "NUMERIC RESULT": -14.9
  },
  {
    "COMPOUND": "OCCN1CCN(CCCN2c3ccccc3Sc3ccc(C(F)(F)F)cc32)CC1 [Fluphenazine dihydrochloride]",
    "UOM": "%",
    "NUMERIC RESULT": -81.7
  }
]

Param item = CNS(=O)(=O)CCc1ccc2[nH]cc(C3CCN(C)CC3)c2c1 [Naratriptan hydrochloride] ; retrieve measured inhibition at 20 µM.
-10.6

Param item = Oc1c2ccccc2c2c3c(cccc13)N=N2 [SP600125] ; retrieve measured inhibition at 20 µM.
-4.71

Param item = Fc1ccc(C(c2ccc(F)cc2)N2CCN(C/C=C/c3ccccc3)CC2)cc1 [Flunarizine dihydrochloride] ; retrieve measured inhibition at 20 µM.
-31

Param item = Cc1cc(O)c2c(c1)C(=O)c1cc(O)cc(O)c1C2=O [Emodin] ; retrieve measured inhibition at 20 µM.
-5.58

###

biological target: His6-AspH315–758 (human aspartate/asparagine-β-hydroxylase, AspH) (Homo sapiens); construct: N-Terminally His6-tagged human AspH315–758 (His6-AspH315–758) was produced in E. coli BL21 (DE3) cells; made in house; host or cells: E. coli BL21 (DE3), pET-28a(+) vector; assay: SPE-MS AspH inhibition assay (LOPAC screen at fixed 20 μM and IC50 dose-response), hydroxylation of cyclic peptide hFX-CP101–119; format: biochemical; conditions: LOPAC compound at fixed 20 uM; plate 1, normalised to DMSO and 2,4-PDCA controls
Plate 1 (% inhibition) by entry:
Quick reminder: number only, in %, skip the unit.

Below, each entry is followed by its recorded Plate 1 (% inhibition) result.
[
  {
    "MOLECULE": "CCCn1c(=O)c2[nH]c(-c3ccc(S(=O)(=O)O)cc3)nc2n(CCC)c1=O [1,3-Dipropyl-8-p-sulfophenylxanthine]",
    "UOM": "%",
    "NUMERIC RESULT": -2.36
  },
  {
    "MOLECULE": "NC(CO)C(=O)NNCc1ccc(O)c(O)c1O (stereo not drawn) [benserazide, reference compound]",
    "UOM": "%",
    "NUMERIC RESULT": 95.21
  },
  {
    "MOLECULE": "Nc1ccc2c3c(cccc13)C(=O)NC2=O [4-Amino-1,8-naphthalimide]",
    "UOM": "%",
    "NUMERIC RESULT": -1.00
  },
  {
    "MOLECULE": "N#Cc1cc([N+](=O)[O-])c2sc(C(N)=O)[n+]([O-])c2c1 [BTO-1]",
    "UOM": "%",
    "NUMERIC RESULT": -2.18
  }
]

Please provide the recorded Plate 1 (% inhibition) for OC[C@H]1O[C@@H](n2cnc3c(NC4CCCC4)ncnc32)[C@H](O)[C@@H]1O [N6-Cyclopentyladenosine] , tested on His6-AspH315–758 (human aspartate/asparagine-β-hydroxylase, AspH) (Homo sapiens).
-4.07

Please provide the recorded Plate 1 (% inhibition) for O=C1CCc2cc(OCCCCc3nnnn3C3CCCCC3)ccc2N1 [Cilostazol] , tested on His6-AspH315–758 (human aspartate/asparagine-β-hydroxylase, AspH) (Homo sapiens).
-4.97

Please provide the recorded Plate 1 (% inhibition) for `Cl.NC1(C(=O)O)CCCCC1` , tested on His6-AspH315–758 (human aspartate/asparagine-β-hydroxylase, AspH) (Homo sapiens).
1.04

Please provide the recorded Plate 1 (% inhibition) for CC(=O)Nc1nnc(S(N)(=O)=O)s1 [Acetazolamide] , tested on His6-AspH315–758 (human aspartate/asparagine-β-hydroxylase, AspH) (Homo sapiens).
9.71

Please provide the recorded Plate 1 (% inhibition) for CO/N=C(\C(=O)N[C@@H]1C(=O)N2C(C(=O)O)=C(CSc3nc(=O)c(=O)[nH]n3C)CS[C@H]12)c1csc(N)n1 [Ceftriaxone sodium] , tested on His6-AspH315–758 (human aspartate/asparagine-β-hydroxylase, AspH) (Homo sapiens).
-8.63

###

Plate 3 (% conversion) by entry:
target: His6-AspH315–758 (human aspartate/asparagine-β-hydroxylase, AspH) (Homo sapiens, UniProt Q12797); construct: N-Terminally His6-tagged human AspH315–758 (His6-AspH315–758) was produced in E. coli BL21 (DE3) cells; made in house; host or cells: E. coli BL21 (DE3), pET-28a(+) vector; experiment: SPE-MS AspH inhibition assay (LOPAC screen at fixed 20 μM and IC50 dose-response), hydroxylation of cyclic peptide hFX-CP101–119; format: biochemical; conditions: LOPAC compound at 20uM, plate 3; conversion of substrate peptide
Counter-ions that a name gives are not always drawn.
Quick reminder: number only, in %, skip the unit.

Below, each entry is followed by its recorded Plate 3 (% conversion) result.
[
  {
    "COMPOUND": "NS(=O)(=O)c1cccc2c1c([N+](=O)[O-])cc1nc([O-])c([O-])nc12.[Na+].[Na+] [NBQX disodium]",
    "MEASURED ENDPOINT": "Plate 3 (% conversion)",
    "NUMERIC RESULT": 7.99
  },
  {
    "COMPOUND": "Nc1nnc(-c2cccc(Cl)c2Cl)c(N)n1",
    "MEASURED ENDPOINT": "Plate 3 (% conversion)",
    "NUMERIC RESULT": 33.75
  }
]

Param item = `N[C@H](C(=O)O)[C@H](O)c1ccc(O)c(O)c1` ; retrieve measured Plate 3 (% conversion).
7.53

Param item = Br.CCCN1CCC2c3cc(O)ccc3CCC21 (racemic) [cis(+/-)-8-OH-PBZI hydrobromide] ; retrieve measured Plate 3 (% conversion).
33.20

Param item = CSc1ccc2c(c1)C(N1CCN(C)CC1)Cc1ccccc1S2 (centres unmarked) [Methiothepin mesylate] ; retrieve measured Plate 3 (% conversion).
47.65

Param item = c1ccc2c(CC3=NCCN3)cccc2c1 [Naphazoline hydrochloride] ; retrieve measured Plate 3 (% conversion).
38.59

Param item = `COc1cc2c(cc1O)CC[C@@H]1[C@@H]2CC[C@]2(C)[C@@H](O)CC[C@@H]12` ; retrieve measured Plate 3 (% conversion).
41.59

Param item = `NC(=O)c1ncn([C@@H]2O[C@H](CO)[C@@H](O)[C@H]2O)c1O` ; retrieve measured Plate 3 (% conversion).
41.03
